EXPERIMENTAL_TARGET: interaction between PD-1 and PD-L1 (Homo sapiens (Human), UniProt Q9NZQ7)
Sequence (Q9NZQ7 19-238): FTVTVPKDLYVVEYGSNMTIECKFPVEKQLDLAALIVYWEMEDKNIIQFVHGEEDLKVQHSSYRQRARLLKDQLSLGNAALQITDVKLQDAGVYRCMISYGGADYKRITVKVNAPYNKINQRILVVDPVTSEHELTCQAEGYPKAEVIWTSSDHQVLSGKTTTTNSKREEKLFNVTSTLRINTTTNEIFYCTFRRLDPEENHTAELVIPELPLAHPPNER
PROTOCOL_SUMMARY: PD1-PDL1 HTRF binding activity test (Cisbio PD-1/PD-L1 binding assay kit)
MEASUREMENT_PARAMETERS: read-out: PD1-PDL1 HTRF Binding Activity IC50
pIC50: −log10 of the molar value.
Use 9 as the dividing line for pIC50, with the line itself on the YES side and lower values as NO.

SMILES_REPR	CLASS_NAME
Cc1cc(C(=O)Nc2cccc(-c3cccc(NC(=O)c4cc(C)c(CN5CCCC[C@@H]5C(=O)O)cn4)c3C)c2C)ncc1CN1CCCC[C@@H]1C(=O)O	YES
CCOC(=O)[C@@H](NCc1cnc(C(=O)Nc2cccc(-c3cccc(NC(=O)c4cc(C5CC5)c(CN[C@H](C(=O)OCC)[C@@H](C)O)cn4)c3C)c2C)cc1C1CC1)[C@@H](C)O	NO
COc1cc(C(=O)Nc2cccc(-c3cccc(NC(=O)c4cc(OC)c(CN5CC6(CCO6)C5)cn4)c3C)c2C)ncc1CN1CC2(CCO2)C1	YES
Cc1c(NC(=O)c2cc(C3CC3)c(CN[C@@H](CCO)C(=O)O)cn2)cccc1-c1cccc(NC(=O)c2cc(C3CC3)c(CN[C@@H](CCO)C(=O)O)cn2)c1C	NO
Cc1cc(C(=O)Nc2cccc(-c3cccc(NC(=O)c4cc(C)c(CNCC5(O)CC5)cn4)c3C)c2C)ncc1CNCC1(O)CC1	YES

---

EXPERIMENTAL_TARGET: interaction between PD-1 and PD-L1 (Homo sapiens (Human), UniProt Q9NZQ7)
PROTOCOL_SUMMARY: PD1-PDL1 HTRF binding activity test (Cisbio PD-1/PD-L1 binding assay kit)
MEASUREMENT_PARAMETERS: read-out: PD1-PDL1 HTRF Binding Activity IC50
READOUT_LABEL: IC50

MOLECULE	EXPERIMENTAL_TARGET	READING
COc1cc(C(=O)Nc2cccc(-c3cccc(NC(=O)c4cc(OC)c(CN5CCCC[C@H]5C(=O)O)cn4)c3C)c2C)ncc1CN1CCCC[C@H]1C(=O)O [Example 65]	interaction between PD-1 and PD-L1 (Homo sapiens (Human), UniProt Q9NZQ7)	0.12 nM
Cc1cc(C(=O)Nc2cccc(-c3cccc(NC(=O)c4cc(C)c(CN[C@@H](CO)C(=O)O)cn4)c3C)c2C)ncc1CN[C@@H](CO)C(=O)O [Example 23]	interaction between PD-1 and PD-L1 (Homo sapiens (Human), UniProt Q9NZQ7)	0.31 nM
Cc1c(NC(=O)c2cc(C3CC3)c(CNC(C(=O)O)C(=O)O)cn2)cccc1-c1cccc(NC(=O)c2cc(C3CC3)c(CNC(C(=O)O)C(=O)O)cn2)c1C [Example 120]	interaction between PD-1 and PD-L1 (Homo sapiens (Human), UniProt Q9NZQ7)	1.43 nM
COc1cc(C(=O)Nc2cccc(-c3cccc(NC(=O)c4cc(OC)c(CNCCS(C)(=N)=O)cn4)c3C)c2C)ncc1CNCCS(C)(=N)=O (stereo not drawn) [Example 88]	interaction between PD-1 and PD-L1 (Homo sapiens (Human), UniProt Q9NZQ7)	0.41 nM
CCOC(=O)[C@@H](CO)NCc1cnc(C(=O)Nc2cccc(-c3cccc(NC(=O)c4cc(C5CC5)c(CN[C@H](CO)C(=O)OCC)cn4)c3C)c2C)cc1C1CC1 [Example 106]	interaction between PD-1 and PD-L1 (Homo sapiens (Human), UniProt Q9NZQ7)	22.5 nM
COc1cc(C(=O)Nc2cccc(-c3cccc(NC(=O)c4cc(OC)c(CNCCN=S5(=O)CCCC5)cn4)c3C)c2C)ncc1CNCCN=S1(=O)CCCC1 [Example 90]	interaction between PD-1 and PD-L1 (Homo sapiens (Human), UniProt Q9NZQ7)	0.36 nM

---

EXPERIMENTAL_TARGET: interaction between PD-1 and PD-L1 (Homo sapiens (Human))
PROTOCOL_SUMMARY: PD1-PDL1 HTRF binding activity test (Cisbio PD-1/PD-L1 binding assay kit)
MEASUREMENT_PARAMETERS: read-out: PD1-PDL1 HTRF Binding Activity IC50
pIC50: −log10 of the molar value.
Classification field: enter class 1 for pIC50 values not below 9, class 0 for values below it.

COMPOUND	CLASS_NAME
Cc1c(NC(=O)c2cc(C3CC3)c(CN[C@H]3CCOC3=O)cn2)cccc1-c1cccc(NC(=O)c2cc(C3CC3)c(CN[C@H]3CCOC3=O)cn2)c1C	class 0
COC(=O)[C@@H]1CCCCN1Cc1cnc(C(=O)Nc2cccc(-c3cccc(NC(=O)c4cc(C)c(CN5CCCC[C@H]5C(=O)OC)cn4)c3C)c2C)cc1C	class 0
COC[C@@H](NCc1cnc(C(=O)Nc2cccc(-c3cccc(NC(=O)c4cc(OC)c(CN[C@H](COC)C(=O)O)cn4)c3C)c2C)cc1OC)C(=O)O	class 1
Cc1cc(C(=O)Nc2cccc(-c3cccc(NC(=O)c4cc(C)c(CN5CCCC5)cn4)c3C)c2C)ncc1CN1CCCC1	class 0
Cc1cc(C(=O)Nc2cccc(-c3cccc(NC(=O)c4cc(C)c(CN[C@H]5CC[C@H](O)CC5)cn4)c3C)c2C)ncc1CN[C@H]1CC[C@H](O)CC1	class 1
COc1cc(C(=O)Nc2cccc(-c3cccc(NC(=O)c4cc(OC)c(CN[C@H]5COC(=O)C5)cn4)c3C)c2C)ncc1CN[C@H]1COC(=O)C1	class 1
COc1cc(C(=O)Nc2cccc(-c3cccc(NC(=O)c4cc(OC)c(CN[C@H]5C[C@@H](C(=O)O)C5)cn4)c3C)c2C)ncc1CN[C@H]1C[C@@H](C(=O)O)C1	class 1
COc1cc(C(=O)Nc2cccc(-c3cccc(NC(=O)c4cc(OC)c(CN5CCC[C@H]5C(=O)O)cn4)c3C)c2C)ncc1CN1CCC[C@H]1C(=O)O	class 1
Cc1c(NC(=O)c2cc(C3CC3)c(CNC3CCC[C@@H]3O)cn2)cccc1-c1cccc(NC(=O)c2cc(C3CC3)c(CN[C@H]3CCC[C@@H]3O)cn2)c1C (stereo partly shown)	class 0
COc1cc(C(=O)Nc2cccc(-c3cccc(NC(=O)c4cc(OC)c(CN[C@H]5CCOC5=O)cn4)c3C)c2C)ncc1CN[C@H]1CCOC1=O	class 1
CNCc1cnc(C(=O)Nc2cccc(-c3cccc(NC(=O)c4cc(OC)c(CNC)cn4)c3C)c2C)cc1OC	class 1
CCOC(=O)C(NCc1cnc(C(=O)Nc2cccc(-c3cccc(NC(=O)c4cc(C5CC5)c(CNC(C(=O)OCC)C(=O)OCC)cn4)c3C)c2C)cc1C1CC1)C(=O)OCC	class 0
COC(=O)[C@@H](CO)NCc1cnc(C(=O)Nc2cccc(-c3cccc(NC(=O)c4cc(OC)c(CN[C@H](CO)C(=O)OC)cn4)c3C)c2C)cc1OC	class 1
COC(=O)[C@H](CO)NCc1cnc(C(=O)Nc2cccc(-c3cccc(NC(=O)c4cc(C)c(CN[C@@H](CO)C(=O)OC)cn4)c3C)c2C)cc1C	class 1
Cc1c(NC(=O)c2cc(C3CC3)c(CNC[C@@H](O)CC(=O)O)cn2)cccc1-c1cccc(NC(=O)c2cc(C3CC3)c(CNC[C@@H](O)CC(=O)O)cn2)c1C	class 1
COc1cc(C(=O)Nc2cccc(-c3cccc(NC(=O)c4cc(OC)c(CN[C@H](C)CO)cn4)c3C)c2C)ncc1CN[C@H](C)CO	class 1
COCCNCc1cnc(C(=O)Nc2cccc(-c3cccc(NC(=O)c4cc(OC)c(CNCCOC)cn4)c3C)c2C)cc1OC	class 1
Cc1c(NC(=O)c2cc(C3CC3)c(CNCCO)cn2)cccc1-c1cccc(NC(=O)c2cc(C3CC3)c(CNCCO)cn2)c1C	class 1
COc1cc(C(=O)Nc2cccc(-c3cccc(NC(=O)c4cc(OC)c(CN5CC(O)C5)cn4)c3C)c2C)ncc1CN1CC(O)C1	class 1

---

EXPERIMENTAL_TARGET: interaction between PD-1 and PD-L1 expressed on cell surfaces (Homo sapiens (Human))
Sequence (Q9NZQ7 19-290): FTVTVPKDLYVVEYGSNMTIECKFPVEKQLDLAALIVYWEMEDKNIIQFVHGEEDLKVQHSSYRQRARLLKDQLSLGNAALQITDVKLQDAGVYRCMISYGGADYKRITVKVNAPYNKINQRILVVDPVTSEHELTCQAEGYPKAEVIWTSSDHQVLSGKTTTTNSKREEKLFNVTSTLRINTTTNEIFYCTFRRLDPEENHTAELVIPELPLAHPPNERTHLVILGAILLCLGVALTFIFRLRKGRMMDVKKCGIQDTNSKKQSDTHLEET
PROTOCOL_SUMMARY: Jurkat reporter gene cellular assay (Jurkat/NF-κB-luc/PD1 cells cocultured with Raji-PD-L1 cells, OKT-3 stimulation)
Type: cell-based
MEASUREMENT_PARAMETERS: NF-κB-luc reporter activation fold, 6 hrs; read-out: Cell Activity EC50
Recorded measurements of log10 EC50, one per entry
READOUT_LABEL: log10 EC50 (log10 of the value in nM)

SMILES_REPR	log10 EC50
CCNC(=O)[C@@H](CO)NCc1cnc(C(=O)Nc2cccc(-c3cccc(NC(=O)c4cc(OC)c(CN[C@H](CO)C(=O)NCC)cn4)c3C)c2C)cc1OC	2.90
Cc1c(NC(=O)c2cc(C3CC3)c(CN[C@H](CO)C(=O)O)cn2)cccc1-c1cccc(NC(=O)c2cc(C3CC3)c(CN[C@H](CO)C(=O)O)cn2)c1C	1.15
Cc1c(NC(=O)c2cc(C3CC3)c(CNCCF)cn2)cccc1-c1cccc(NC(=O)c2cc(C3CC3)c(CNCCF)cn2)c1C	2.76
Cc1c(NC(=O)c2cc(C3CC3)c(CN3CC[C@@H](C(=O)O)C3)cn2)cccc1-c1cccc(NC(=O)c2cc(C3CC3)c(CN3CC[C@@H](C(=O)O)C3)cn2)c1C	1.36
COc1cc(C(=O)Nc2cccc(-c3cccc(NC(=O)c4cc(OC)c(CNCC(C)(C)O)cn4)c3C)c2C)ncc1CNCC(C)(C)O	2.24
COCCNCc1cnc(C(=O)Nc2cccc(-c3cccc(NC(=O)c4cc(C)c(CNCCOC)cn4)c3C)c2C)cc1C	2.14
